Reported log10 of GI50, HCT-15.
Would you kindly interpret these values as log10 of GI50 expressed in µM?

Some compounds with recorded log10 of GI50:
- Structure As Smiles: "CCCCOCc1cc(CN2CCN(C)CC2)c(O)c2ncccc12"
  Value: 0.44
- Structure As Smiles: "O=C(Sc1c(-c2ccccc2)c(=O)n(-c2ccccc2)c(=S)n1-c1ccccc1)c1ccccc1"
  Value: 1.78
- Structure As Smiles: "Cc1c(C(=O)C/C(=N/NC(=O)CC#N)C(N)=O)[n+]([O-])c2ccccc2[n+]1[O-]"
  Value: 1.41
- Structure As Smiles: "O=C(CCc1ccccc1)NCCc1ccc(O)c(O)c1"
  Value: 1.50

As a next step, examine the compound that follows.
Value sought: log10 of GI50, system HCT-15, item Cc1[nH]c2ccccc2c1-c1cc(-c2cc(-c3c(C)[nH]c4ccccc34)on2)no1 . Result: 1.76
